# system-tested: T1, human B7-H3 (Y-Biologics Inc.) (human, UniProt Q5ZPR3 29-466)
# T1 chain: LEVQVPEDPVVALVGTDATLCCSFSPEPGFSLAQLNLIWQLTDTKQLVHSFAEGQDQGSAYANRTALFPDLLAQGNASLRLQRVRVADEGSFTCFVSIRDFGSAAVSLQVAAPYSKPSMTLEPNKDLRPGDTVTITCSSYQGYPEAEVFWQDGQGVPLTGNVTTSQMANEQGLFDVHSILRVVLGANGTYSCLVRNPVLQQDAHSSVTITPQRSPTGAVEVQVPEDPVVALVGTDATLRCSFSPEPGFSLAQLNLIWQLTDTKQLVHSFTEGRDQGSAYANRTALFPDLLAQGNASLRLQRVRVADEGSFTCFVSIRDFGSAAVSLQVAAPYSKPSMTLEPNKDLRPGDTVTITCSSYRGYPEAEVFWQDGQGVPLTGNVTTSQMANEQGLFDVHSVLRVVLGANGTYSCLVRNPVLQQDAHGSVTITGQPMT
# experimental-details: BLI (Octet QKe), antibody on AHC biosensor, human B7-H3 as analyte, 1:1 global fit
Reported log10(koff) values follow for various binders
Quick note: numbers are log10 of koff, with s⁻¹ as the unit.

Some entries whose results are on file:
binder | log10(koff)
AB2.1 (SA2107.01, CD276-040F10_IgG1_A1C) (antibody, V domains shown, Tested unconjugated; also called SA2107 A121C) VH: QVQLVESGAEVKKPGASVKLSCKASGYTFSSYWMHWVRQAPGQRLEWMGEINPGNGHTNYNEKFKSRVTITVDKSASTAYMELSSLRSEDTAVYYCVADPRRPKVPTALFVYWGQGTLVTVSS VL: DIQMTQSPSSVSASVGDRVTISCRASQGIGTWLAWYQQKPGKAPRLLIYAASSLDSGVPSRFSASGSGTDFTLTISSLQPEDFATYYCQQAINFPITFGQGTRLEIKR | -4.70
AB4 (SA2545, CD276-039C05_LS_001E10) (antibody, human IgG1, V domains shown, Whole human IgG; also called CD276-39C05-LS-001E10) VH: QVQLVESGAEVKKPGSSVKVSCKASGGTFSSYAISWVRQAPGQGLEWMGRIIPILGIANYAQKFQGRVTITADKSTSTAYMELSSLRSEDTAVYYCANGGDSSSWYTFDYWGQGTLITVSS VL: DIQMTQSPSTLSASVGDRVNITCRASQTINSWLAWYQQKPGKAPKLLIYKASYLQTGVPSRFSGSGAGTEFTLTISSLQPDDFATYYCQQYNSYSLTFGGGTKVEIK | -4.15
AB7 (SA2571, CD276-039C05_LS_002D03) (antibody, human IgG1, V domains shown, Whole human IgG; also called CD276-39C05_LS_002D03) VH: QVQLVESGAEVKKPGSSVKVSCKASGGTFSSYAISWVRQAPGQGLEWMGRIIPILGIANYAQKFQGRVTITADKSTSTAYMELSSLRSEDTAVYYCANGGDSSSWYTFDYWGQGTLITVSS VL: DIQMTQSPSTLSASVGDRVTITCRASETISSWLAWYQQKPGKAPKLLIYKASSLQSGVPSRFSGSGSGTEFTLTISSLQPDDFATYYCQQYYSYPITFGQGTRLEIK | -3.30
AB3 (SA2103, CD276-039C05) (antibody, human IgG1, V domains shown, Whole human IgG) VH: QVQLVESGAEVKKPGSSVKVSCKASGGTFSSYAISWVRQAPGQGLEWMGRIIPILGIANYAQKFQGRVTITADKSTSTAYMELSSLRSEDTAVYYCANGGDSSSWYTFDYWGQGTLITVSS VL: DIQMTQSPSTLSASVGDKLTLTCRASQSISRWLAWYQQKPGKAPKLLIYKASYLQTGVPSRFSGSGTGTEFTLTISSLQPDDFATYYCQQYNTFPLTFAGGTKVEIK | -4.52

# input for lookup
Incoming: Look at this binder and give its reported log10(koff). AB2 (SA2107, CD276-040F10) (antibody, human IgG1, V domains shown, Whole human IgG) VH: QVQLVESGAEVKKPGASVKLSCKASGYTFSSYWMHWVRQAPGQRLEWMGEINPGNGHTNYNEKFKSRVTITVDKSASTAYMELSSLRSEDTAVYYCVADPRRPKVPTALFVYWGQGTLVTVSS VL: DIQMTQSPSSVSASVGDRVTISCRASQGIGTWLAWYQQKPGKAPRLLIYAASSLDSGVPSRFSASGSGTDFTLTISSLQPEDFATYYCQQAINFPITFGQGTRLEIK
Outgoing: -4.40
